- systemName: Vancomycin/teicoplanin A-type resistance protein VanA (Enterococcus faecium) (UniProt P25051)
- Sequence (P25051 whole entry): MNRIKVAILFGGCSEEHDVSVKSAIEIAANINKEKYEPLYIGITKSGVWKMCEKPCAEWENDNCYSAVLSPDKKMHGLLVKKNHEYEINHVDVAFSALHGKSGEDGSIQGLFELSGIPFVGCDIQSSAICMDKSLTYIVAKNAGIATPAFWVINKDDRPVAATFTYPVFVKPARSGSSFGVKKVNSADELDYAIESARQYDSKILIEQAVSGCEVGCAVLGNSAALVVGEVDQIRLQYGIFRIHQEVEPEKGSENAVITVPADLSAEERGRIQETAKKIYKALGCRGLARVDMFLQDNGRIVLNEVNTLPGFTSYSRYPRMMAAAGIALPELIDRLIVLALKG
- assaySummary: Inhibition of Enterococcus faecium VanA at 500 uM by pyruvate kinase/lactate dehydrogenase coupled assay
Measured inhibition by item

Solved entries (count: 2):
- O=P(O)(O)OC(CNS(=O)(=O)c1ccc(F)cc1)CN1CCOCC1 (centres undefined): 75%
- COc1ccc(S(=O)(=O)NCC(CN2CCOCC2)OP(=O)(O)O)cc1 (centres undefined): 83%

Let us move to another entry and its inhibition.
Problem: Given O=P(O)(Oc1ccccc1)OC(CNS(=O)(=O)c1ccc(F)cc1)CN1CCOCC1 (centres undefined) , state its recorded inhibition.
Solution: 65%

* * *

- System: Escherichia coli
- assaySummary: Inhibition of Escherichia coli […] at 500 uM by pyruvate kinase/lactate dehydrogenase coupled assay
The source made the active and inactive calls. The rule behind the calls is not given here.
recordedEndpoint: inhibition

• O=P(O)(Oc1ccccc1)OC(CNS(=O)(=O)c1ccc(F)cc1)CN1CCOCC1 (centres undefined) = inactive
• O=P(O)(O)OC(CNS(=O)(=O)c1ccc(F)cc1)CN1CCOCC1 (centres undefined) = 77%
• COc1ccc(S(=O)(=O)NCC(CN2CCOCC2)OP(=O)(O)Oc2ccccc2)cc1 (centres undefined) = inactive
• COc1ccc(S(=O)(=O)NCC(CN2CCOCC2)OP(=O)(O)O)cc1 (centres undefined) = 83%

* * *

- systemName: Vancomycin/teicoplanin A-type resistance protein VanA (Enterococcus faecium, UniProt P25051)
- Sequence (P25051 whole entry): as above
- assaySummary: Inhibition of Enterococcus faecium VanA by pyruvate kinase/lactate dehydrogenase coupled assay
recordedEndpoint: IC50 (µM)

• O=P(O)(O)OC(CNS(=O)(=O)c1ccc(F)cc1)CN1CCOCC1 (configuration not stated) = 290
• COc1ccc(S(=O)(=O)NCC(CN2CCOCC2)OP(=O)(O)O)cc1 (configuration not stated) = 224
